experiment: in vivo; conditions: both, Sprague Dawley, rat, 12 mg/kg
Ends that are not written are not given here.

>  <SEQUENCE CHAIN>
KEGVLYVGHHTK [AmyP53]

>  <MEASUREMENT UNIT>
min

>  <Tmax>
10

$$$$

---

assay: In vitro stability in rat whole blood (LC–MS); type: in vitro ADME; conditions: rat fresh whole blood, read-out: Half-life time
Ends that are not written are not given here.

>  <SEQUENCE CHAIN>
KEGVLYVGHHTK [AmyP53]

>  <half-life at 300 µM>
17 min

$$$$
